Source: paper PMC11766601

- Tested on: Caco-2 cell monolayers
- Test Protocol: Toxin crossing and apparent permeability across Caco-2 cell monolayers (A to B), LC-MS/MS
- Assay type: in vitro ADME, human
- Measurement Context: 2 h, 32 ng/mL, relative to theoretical loaded concentration
Metric Name: % theoretical amount of toxin crossing the Caco-2 cell monolayers (%)
Report as a plain number; the unit % is understood.

Problem: What value of % theoretical amount of toxin crossing the Caco-2 cell monolayers has been reported for the following molecule? C=CC1=CC2C3O[C@]4(CCC(O4)[C@@H](C)C[C@@H](O)C3=O)C[C@H](O)C3=NCC[C@@]32CC1 (stereo partly drawn)
Result: 20.73

Problem: What about this molecule? C=C1CCCC2=NCC(C)C(C)CC23CCC(C(=O)O)=CC3C2OC3(CC4CCCC5(CCC6(OC(CCC6(C)O)C1)O5)O4)CC(C)C(O)C2O3 (stereo not drawn)
Result: 2.60

Problem: What about this molecule? C=CC1=CC2C3OC4(CC5CCCC6(CCC7(OC(CCC7(C)O)CC(=C)CCCC7=NCC(C)C(C)CC72CC1)O6)O5)CC(C)C(O)C3O4 (stereo not drawn)
Result: 8.64

Problem: What about this molecule? C=C1CCCC2=NCC(C)C(C)CC23CCC(C(O)CCC(=O)O)=CC3C2OC3(CC(C)CC2O3)CC2OC3(CCC4(OC(CCC4(C)O)C1)O3)CC(C)C2O (stereo not drawn)
Result: 2.47

Problem: What about this molecule? C=CC1=CC2C3OC4(CC(C)CC3O4)CC3OC4(CCC5(OC(CCC5(C)O)CC(=C)CCCC5=NCC(C)C(C)CC52CC1)O4)CC(C)C3O (stereo not drawn)
Result: 4.32

Problem: What about this molecule? C=C1CCCC2=NCC(C)C(C)CC23CCC(C2CCC(=O)O2)=CC3C2OC3(CC(C)CC2O3)CC2OC3(CCC4(OC(CCC4(C)O)C1)O3)CC(C)C2O (stereo not drawn)
Result: 5.03

###

- Test Protocol: Toxin crossing and apparent permeability across Caco-2 cell monolayers (A to B), LC-MS/MS
- Assay type: in vitro ADME, human
- Measurement Context: human, Caco-2; 6 h, loaded 16 ng/mL, A to B
Metric Name: Papp at 6 h, 16 ng/mL (×10⁻⁶ cm/s)
Report as a plain number; the unit ×10⁻⁶ cm/s is understood.

Answered examples (2):
>  <Compound>
C=C1CCCC2=NCC(C)C(C)CC23CCC(C2CCC(=O)O2)=CC3C2OC3(CC(C)CC2O3)CC2OC3(CCC4(OC(CCC4(C)O)C1)O3)CC(C)C2O (stereo not drawn)

>  <Result Units>
×10⁻⁶ cm/s

>  <Papp at 6 h, 16 ng/mL>
11.4

$$$$
>  <Compound>
C=CC1=CC2C3O[C@]4(CCC(O4)[C@@H](C)C[C@@H](O)C3=O)C[C@H](O)C3=NCC[C@@]32CC1 (stereo partly drawn)

>  <Result Units>
×10⁻⁶ cm/s

>  <Papp at 6 h, 16 ng/mL>
19

$$$$

Consider the record given below.
Problem: What value of Papp at 6 h, 16 ng/mL has been reported for the following compound? C=CC1=CC2C3OC4(CC(C)CC3O4)CC3OC4(CCC5(OC(CCC5(C)O)CC(=C)CCCC5=NCC(C)C(C)CC52CC1)O4)CC(C)C3O (stereo not drawn)
Result: 30.3

###

Measured Percentage of toxin crossing the Caco-2 cell monolayers by item
- Test system: Caco-2 cell monolayers
- Test Protocol: Toxin crossing and apparent permeability across Caco-2 cell monolayers (A to B), LC-MS/MS
- Assay type: in vitro ADME, human
- Measurement Context: 2 h, loaded 32 ng/mL, A to B, relative to quantified T0
Report as a plain number; the unit % is understood.

>  <Compound>
C=C1CCCC2=NCC(C)C(C)CC23CCC(C(O)CCC(=O)O)=CC3C2OC3(CC(C)CC2O3)CC2OC3(CCC4(OC(CCC4(C)O)C1)O3)CC(C)C2O (stereo not drawn) [PnTX-E]

>  <Tgt>
Caco-2 cell monolayers

>  <Recorded Result>
2.92

$$$$
>  <Compound>
C=CC1=CC2C3OC4(CC(C)CC3O4)CC3OC4(CCC5(OC(CCC5(C)O)CC(=C)CCCC5=NCC(C)C(C)CC52CC1)O4)CC(C)C3O (stereo not drawn) [PnTX-H, Pinnatoxin H]

>  <Tgt>
Caco-2 cell monolayers

>  <Recorded Result>
29.07

$$$$
>  <Compound>
C=CC1=CC2C3OC4(CC5CCCC6(CCC7(OC(CCC7(C)O)CC(=C)CCCC7=NCC(C)C(C)CC72CC1)O6)O5)CC(C)C(O)C3O4 (stereo not drawn) [PnTX-G, Pinnatoxin G]

>  <Tgt>
Caco-2 cell monolayers

>  <Recorded Result>
23.07

$$$$
>  <Compound>
C=C1CCCC2=NCC(C)C(C)CC23CCC(C2CCC(=O)O2)=CC3C2OC3(CC(C)CC2O3)CC2OC3(CCC4(OC(CCC4(C)O)C1)O3)CC(C)C2O (stereo not drawn) [PnTX-F]

>  <Tgt>
Caco-2 cell monolayers

>  <Recorded Result>
11.20

$$$$
>  <Compound>
C=C1CCCC2=NCC(C)C(C)CC23CCC(C(=O)O)=CC3C2OC3(CC4CCCC5(CCC6(OC(CCC6(C)O)C1)O5)O4)CC(C)C(O)C2O3 (stereo not drawn) [PnTX-A]

>  <Tgt>
Caco-2 cell monolayers

>  <Recorded Result>
2.01

$$$$

Consider the record given below.
Problem: What value of Percentage of toxin crossing the Caco-2 cell monolayers has been reported for the following compound? C=CC1=CC2C3O[C@]4(CCC(O4)[C@@H](C)C[C@@H](O)C3=O)C[C@H](O)C3=NCC[C@@]32CC1 (stereo partly drawn) [Portimine, portimine]
Result: 23.25
